Where these numbers come from: ChEMBL document CHEMBL4680191

Listed here are molecules together with their documented pIC50.
Tested on: HepG2
Assay Comment: Cytotoxicity against human HepG2 cells assessed as reduction in cell viability by MTT assay
Type: functional, cell-based
// pIC50: -log10(molar conc.)

Reference set (5 entries):
| Molecule | Experimental Value |
| --- | --- |
| CCNCC(C(=O)N1CCN(c2ncnc3sc4c(c23)CCC4)CC1)c1ccc(Cl)cc1 (stereo unspecified) | 6.24 |
| O=C(C(CNC1CCCCC1)c1ccc(Cl)cc1)N1CCN(c2ncnc3sc4c(c23)CCC4)CC1 (stereo unspecified) | 6.41 |
| CC(C)NCC(C(=O)N1CCN(c2ncnc3sc4c(c23)CCC4)CC1)c1ccc(Br)cc1 (stereo unspecified) | 6.69 |
| CCCCNCC(C(=O)N1CCN(c2ncnc3sc4c(c23)CCC4)CC1)c1ccc(Cl)cc1 (stereo unspecified) | 6.04 |
| CC(C)NC[C@@H](C(=O)N1CCN(c2ncnc3c2[C@H](C)C[C@H]3O)CC1)c1ccc(Cl)cc1 [IPATASERTIB] | 6.57 |

*Q* Look up and report measured pIC50 for this entry: O=C(C(CNC1CCCC1)c1ccc(Cl)cc1)N1CCN(c2ncnc3sc4c(c23)CCC4)CC1 (stereo unspecified)
*A* 6.74

----------
Test system: RAC-beta serine/threonine-protein kinase (Homo sapiens), P31751 [S474D]
Sequence (P31751 whole entry S474D): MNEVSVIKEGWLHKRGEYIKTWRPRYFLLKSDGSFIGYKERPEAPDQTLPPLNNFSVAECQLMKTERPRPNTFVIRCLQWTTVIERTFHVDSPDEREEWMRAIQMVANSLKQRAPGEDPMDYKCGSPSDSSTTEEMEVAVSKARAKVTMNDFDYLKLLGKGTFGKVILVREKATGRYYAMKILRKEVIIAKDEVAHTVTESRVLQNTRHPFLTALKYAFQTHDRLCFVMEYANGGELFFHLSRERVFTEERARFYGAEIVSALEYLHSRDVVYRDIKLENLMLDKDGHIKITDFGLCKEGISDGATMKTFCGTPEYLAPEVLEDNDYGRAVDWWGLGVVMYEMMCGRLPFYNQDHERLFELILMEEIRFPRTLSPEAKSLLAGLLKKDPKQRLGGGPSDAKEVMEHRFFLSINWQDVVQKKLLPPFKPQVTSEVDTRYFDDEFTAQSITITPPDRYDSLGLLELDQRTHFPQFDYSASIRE
Assay Comment: Inhibition of full length human Akt2 S474D mutant assessed as remaining activity at 1 uM using GRPRTSSFAEGKK as substrate incubated for 40 mins by scintillation counting method relative to control
Measure: Activity (%)
The answer is to be given in %; state only the numeric part.

| Compound | System Under Test | Activity, % |
| --- | --- | --- |
| O=C(C(CNC1CCCC1)c1ccc(Cl)cc1)N1CCN(c2ncnc3sc4c(c23)CCC4)CC1 (stereo not given) | RAC-beta serine/threonine-protein kinase (Homo sapiens), P31751 [S474D] | 63 |
| CC(C)NCC(C(=O)N1CCN(c2ncnc3sc4c(c23)CCN(C)C4)CC1)c1ccccc1Cl (stereo not given) | RAC-beta serine/threonine-protein kinase (Homo sapiens), P31751 [S474D] | 83 |
| CC(C)NCC(C(=O)N1CCN(c2ncnc3sc4c(c23)CCC4)CC1)c1ccccc1Cl (stereo not given) | RAC-beta serine/threonine-protein kinase (Homo sapiens), P31751 [S474D] | 101 |
| Cc1ccc(C(CNC(C)C)C(=O)N2CCN(c3ncnc4sc5c(c34)CCN(C)C5)CC2)cc1 (stereo not given) | RAC-beta serine/threonine-protein kinase (Homo sapiens), P31751 [S474D] | 73 |
| CN1CCc2c(sc3ncnc(N4CCN(C(=O)C(CNC5CCCC5)c5ccc(Cl)cc5)CC4)c23)C1 (stereo not given) | RAC-beta serine/threonine-protein kinase (Homo sapiens), P31751 [S474D] | 81 |
| COc1ccc(C(CNC(C)C)C(=O)N2CCN(c3ncnc4sc5c(c34)CCC5)CC2)cc1 (stereo not given) | RAC-beta serine/threonine-protein kinase (Homo sapiens), P31751 [S474D] | 86 |

*Q* Look up and report measured Activity for this entry: CC(C)NCC(C(=O)N1CCN(c2ncnc3sc4c(c23)CCCC4)CC1)c1ccc(Cl)cc1 (stereo not given)
*A* 72

*Q* Look up and report measured Activity for this entry: CC(C)NCC(C(=O)N1CCN(c2ncnc3sc4c(c23)CCN(Cc2ccccc2)C4)CC1)c1ccc(Cl)cc1 (stereo not given)
*A* 77

*Q* Look up and report measured Activity for this entry: CCNCC(C(=O)N1CCN(c2ncnc3sc4c(c23)CCN(C)C4)CC1)c1ccc(Cl)cc1 (stereo not given)
*A* 107

*Q* Look up and report measured Activity for this entry: COc1ccc(C(CNC(C)C)C(=O)N2CCN(c3ncnc4sc5c(c34)CCN(C)C5)CC2)cc1 (stereo not given)
*A* 78
